meta.source: patent US9822069B2

Biological target: human FPRL1 (Homo sapiens, UniProt P25090)
Sequence (P25090 whole entry): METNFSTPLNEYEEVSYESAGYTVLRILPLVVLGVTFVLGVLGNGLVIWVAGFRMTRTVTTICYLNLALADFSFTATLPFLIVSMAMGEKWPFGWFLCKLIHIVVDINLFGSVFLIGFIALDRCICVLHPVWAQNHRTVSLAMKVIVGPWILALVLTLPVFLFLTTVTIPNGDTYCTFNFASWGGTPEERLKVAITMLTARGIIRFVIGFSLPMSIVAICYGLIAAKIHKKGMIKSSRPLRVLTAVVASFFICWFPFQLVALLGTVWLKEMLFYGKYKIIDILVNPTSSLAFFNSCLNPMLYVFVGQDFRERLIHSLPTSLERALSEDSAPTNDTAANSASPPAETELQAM
Assay: Measurement test of agonist activity on human FPRL1 (test of calcium mobilization in cell, HEK293 with human FPRL1 and Gα15 expression vectors)
Conditions: calcium mobilization in HEK293 cells with human FPRL1 and Gα15 expression vectors
Source text: Measurement Test of Agonist Activity on Human FPRL1 (1-1) Construction of Human FPRL1 Expression Vector Human FPRL (SEQ ID NO: 3) was amplified in a PCR reaction from cDNA derived from a monocytic leukemia cell line THP-1 (TIB-202, ATCC) as a template using a forward primer shown in SEQ ID NO: 1, a reverse primer shown in SEQ ID NO: 2, and KOD-plus-ver. 2 (KOD-211, TOYOBO CO., LTD.). […]
pEC50: −log10 of the molar value.
Cut-off 9 on pEC50, inclusive. At or above means Criterion met; below means Criterion not met.

Worked examples, 4 molecules total:
1) COc1cc(F)c([C@@H]2CN/C(=N\OCCO)[C@H]2NC(=O)Nc2ccc(F)cc2)c(F)c1 (single isomer, unassigned): Criterion met
2) CO/N=C1\NC[C@@H](c2ccc(OC)cc2)[C@@H]1NC(=O)Nc1ccc(F)cc1 (single isomer, unassigned): Criterion met
3) O=C(Nc1ccc(Cl)cc1)N[C@H]1C(=O)NC[C@@H]1c1ccccc1 (relative stereo): Criterion not met
4) COc1c(F)cc([C@@H]2CNC(=O)[C@H]2NC(=O)Nc2ccc(F)cc2)cc1F (single isomer, unassigned): Criterion not met

Confirm if pEC50 reported for the molecule COc1ccc(NC(=O)N[C@@H]2C(=O)NC[C@H]2c2c(F)cc(OC)cc2F)cc1 (single isomer, unassigned) is 9 or above. Criterion not met

Subsequent entry: COc1cc(F)c([C@@H]2CNC(=O)[C@H]2NC(=O)Nc2cccc(C#N)c2)c(F)c1 (relative stereo) Criterion not met

Subsequent entry: O=C(Nc1ccc(F)cc1)N[C@@H]1C(=O)N(CCO)C[C@H]1c1cc2c(cc1F)OCC2 (single isomer, unassigned) Criterion met

Subsequent entry: COc1ccc(C2CN(CCO)C(=O)C2NC(=O)Nc2ccc(F)cc2)cc1 (centres unmarked) Criterion met

Subsequent entry: CNC(=O)CN1C[C@@H](c2c(F)cc(OC)cc2F)[C@H](NC(=O)Nc2ccc(F)cc2)C1=O (relative stereo) Criterion met

Subsequent entry: COc1cc(F)c([C@@H]2CNC(=O)[C@H]2NC(=O)Nc2ccc(Cl)cc2)c(F)c1 (single isomer, unassigned) Criterion met

Subsequent entry: COc1cc(F)c([C@@H]2CN(OC)C(=O)[C@H]2NC(=O)Nc2ccc(F)cc2)c(F)c1 (single isomer, unassigned) Criterion met

Subsequent entry: COc1cc(F)c([C@@H]2CNC(=O)[C@H]2NC(=O)Nc2ccc(Cl)s2)c(F)c1 (relative stereo) Criterion met

Subsequent entry: COc1cc(F)c([C@@H]2CN/C(=N\OCCO)[C@H]2NC(=O)Nc2ccc(C)cc2)c(F)c1 (single isomer, unassigned) Criterion met

Subsequent entry: COc1ccc([C@@H]2CN(CCO)C(=O)C2NC(=O)Nc2ccc(Cl)cc2)cc1 (mixture of isomers) Criterion met

Subsequent entry: COc1ccc([C@@H]2CN(C)C(=O)[C@H]2NC(=O)Nc2ccc(F)cc2)cc1 (relative stereo) Criterion met

Subsequent entry: CCOC(=O)CC/N=C1\NC[C@@H](c2c(F)cc(OC)cc2F)[C@@H]1NC(=O)Nc1ccc(F)cc1 Criterion not met

Subsequent entry: COc1ccc([C@@H]2CN(C(C)(C)CO)C(=O)[C@H]2NC(=O)Nc2ccc(F)cc2)cc1 (relative stereo) Criterion met
